Data provenance is ChEMBL document CHEMBL3739369.

Test system: Mycolicibacterium smegmatis
Assay: Antimicrobial activity against Mycobacterium smegmatis ATCC 14468 for 17 to 48 hrs by MTT assay
Type: functional
measurement type: MIC (µg/mL)
// units = µg/mL; emit number, no label

CN[C@@H]1[C@@H](O[C@H]2O[C@H](CO)[C@@H](N)[C@H](O)[C@H]2O)O[C@H]2C[C@@H](N)[C@@H](O[C@H]3[C@H](O)[C@@H](O)[C@H](N)C[C@@H]3N)O[C@@H]2[C@@H]1O 0.39

Reported MIC, compound CC[C@@H]1[C@@H](C)O[C@@](OC)([C@@H](C)[C@H](O)[C@H](C)[C@H]2OC(=O)/C=C/C=C/[C@H](C)[C@@H]([C@@H](C)[C@@H](O)[C@H](C)[C@@]3(OC)C[C@@H](O[C@H]4C[C@H](O)[C@H](O)[C@H](C)O4)[C@H](CC)[C@@H](C)O3)OC(=O)/C(C)=C/C=C/[C@@H]2C)C[C@H]1O[C@H]1C[C@H](O)[C@H](O)[C@H](C)O1 : ____
6.25
